- Tested on: Proteus vulgaris (ATCC 33420)
- Test details: MIC determination, microbroth dilution
- Assay type: cell-based
- Condition description: ATCC33420
Where a name gives a salt, the structure may show the parent alone.
In this section we review reported MIC values for a set of molecules.

Record excerpt, results attached:
>  <Molecule>
CCc1ccc(CNC[C@]2(O)C[C@@H](C)O[C@H]3O[C@@H]4[C@@H](O)[C@H](NC)[C@H](O)[C@H](NC)[C@H]4O[C@]32O)cc1 [compound 3, Trihydrochloride]

>  <System name>
Proteus vulgaris (ATCC 33420)

>  <MIC>
25 to 50 mg/L

$$$$
>  <Molecule>
CN[C@@H]1[C@H](O)[C@H](NC)[C@H]2O[C@]3(O)[C@H](O[C@@H]2[C@H]1O)O[C@H](C)C[C@@]3(O)CNCCc1ccc(OC)cc1 [compound 53, Trihydrochloride]

>  <System name>
Proteus vulgaris (ATCC 33420)

>  <MIC>
200 mg/L

$$$$
>  <Molecule>
CN[C@@H]1[C@H](O)[C@H](NC)[C@H]2O[C@]3(O)[C@H](O[C@@H]2[C@H]1O)O[C@H](C)C[C@@]3(O)CNCc1ccc(Cl)s1 [compound 21, Trihydrobromide]

>  <System name>
Proteus vulgaris (ATCC 33420)

>  <MIC>
≥ 200 mg/L

$$$$
>  <Molecule>
CN[C@@H]1[C@H](O)[C@H](NC)[C@H]2O[C@]3(O)[C@H](O[C@@H]2[C@H]1O)O[C@H](C)C[C@@]3(O)CNCc1cccnc1

>  <System name>
Proteus vulgaris (ATCC 33420)

>  <MIC>
> 200 mg/L

$$$$
>  <Molecule>
CN[C@@H]1[C@H](O)[C@H](NC)[C@H]2O[C@]3(O)[C@H](O[C@@H]2[C@H]1O)O[C@H](C)C[C@@]3(O)CNCCc1ccc(OC(F)(F)F)cc1 [compound 57, Trihydrochloride]

>  <System name>
Proteus vulgaris (ATCC 33420)

>  <MIC>
200 mg/L

$$$$

Please indicate MIC recorded for CN[C@@H]1[C@H](O)[C@H](NC)[C@H]2O[C@]3(O)[C@H](O[C@@H]2[C@H]1O)O[C@H](C)C[C@@]3(O)CNCCN1CCOCC1
≥ 200 mg/L

Please indicate MIC recorded for CN[C@@H]1[C@H](O)[C@H](NC)[C@H]2O[C@]3(O)[C@H](O[C@@H]2[C@H]1O)O[C@H](C)C[C@@]3(O)CNCCc1ccc(C)cc1 [compound 32, Trihydrochloride]
100 mg/L

Please indicate MIC recorded for CN[C@@H]1[C@H](O)[C@H](NC)[C@H]2O[C@]3(O)[C@H](O[C@@H]2[C@H]1O)O[C@H](C)C[C@@]3(O)CNCc1cccc(F)c1 [compound 15, Trihydrochloride]
200 mg/L

Please indicate MIC recorded for CN[C@@H]1[C@H](O)[C@H](NC)[C@H]2O[C@]3(O)[C@H](O[C@@H]2[C@H]1O)O[C@H](C)C[C@@]3(O)CNCCc1nccs1
> 200 mg/L

Please indicate MIC recorded for CN[C@@H]1[C@H](O)[C@H](NC)[C@H]2O[C@]3(O)[C@H](O[C@@H]2[C@H]1O)O[C@H](C)C[C@@]3(O)CNCc1cccc(OC(F)(F)F)c1 [compound 25, Trihydrochloride]
> 200 mg/L

Please indicate MIC recorded for CN[C@@H]1[C@H](O)[C@H](NC)[C@H]2O[C@]3(O)[C@H](O[C@@H]2[C@H]1O)O[C@H](C)C[C@@]3(O)CNCc1ccncc1
> 200 mg/L

Please indicate MIC recorded for CN[C@@H]1[C@H](O)[C@H](NC)[C@H]2O[C@]3(O)[C@H](O[C@@H]2[C@H]1O)O[C@H](C)C[C@@]3(O)CNCC(C)c1ccccc1 (stereo partly shown)
> 200 mg/L

Please indicate MIC recorded for CCOc1ccc(CNC[C@]2(O)C[C@@H](C)O[C@H]3O[C@@H]4[C@@H](O)[C@H](NC)[C@H](O)[C@H](NC)[C@H]4O[C@]32O)cc1 [compound 4, Trihydrochloride]
> 200 mg/L

Please indicate MIC recorded for CN[C@@H]1[C@H](O)[C@H](NC)[C@H]2O[C@]3(O)[C@H](O[C@@H]2[C@H]1O)O[C@H](C)C[C@@]3(O)CNCc1ccc(Cl)cc1 [compound 18, Trihydrobromide]
100 to 200 mg/L

Please indicate MIC recorded for CN[C@@H]1[C@H](O)[C@H](NC)[C@H]2O[C@]3(O)[C@H](O[C@@H]2[C@H]1O)O[C@H](C)C[C@@]3(O)CNCCc1ccc(Cl)cc1 [compound 54, Trihydrobromide]
> 200 mg/L

Please indicate MIC recorded for CN[C@@H]1[C@H](O)[C@H](NC)[C@H]2O[C@]3(O)[C@H](O[C@@H]2[C@H]1O)O[C@H](C)C[C@@]3(O)CNCc1cncnc1
> 200 mg/L

Please indicate MIC recorded for CN[C@@H]1[C@H](O)[C@H](NC)[C@H]2O[C@]3(O)[C@H](O[C@@H]2[C@H]1O)O[C@H](C)C[C@@]3(O)CNCc1cnc[nH]1
100 to 200 mg/L

Please indicate MIC recorded for CN[C@@H]1[C@H](O)[C@H](NC)C2O[C@]3(O)C(OC2[C@H]1O)O[C@H](C)C[C@@]3(O)CNCc1cccc(O)c1 (stereo partly shown)
≥ 200 mg/L

Please indicate MIC recorded for CN[C@@H]1[C@H](O)[C@H](NC)[C@H]2O[C@]3(O)[C@H](O[C@@H]2[C@H]1O)O[C@H](C)C[C@@]3(O)CNc1ccc(OC)cc1 [compound 29, Trihydrochloride]
> 200 mg/L

---

In this section we review reported MIC values for a set of compounds.
- Tested on: M. tuberculosis clinical isolates
- Test details: microbe, parasite or virus in culture
- Type: cell-based
- Condition description: Mycobacterium tuberculosis, H37RV, read-out: MIC H37Rv
Structures can show the parent of a compound that is named as a salt.
Number in µg/mL, nothing else.

>  <Compound>
CN[C@@H]1[C@H](O)[C@H](NC)C2O[C@]3(O)C(OC2[C@H]1O)O[C@H](C)C[C@@]3(O)CNCC(C)c1ccccc1 (some centres unmarked)

>  <Units label>
µg/mL

>  <Reported measurement>
100

$$$$
>  <Compound>
CN[C@@H]1[C@H](O)[C@H](NC)[C@H]2O[C@]3(O)[C@H](O[C@@H]2[C@H]1O)O[C@H](C)C[C@@]3(O)CNCCc1cccnc1

>  <Units label>
µg/mL

>  <Reported measurement>
6.3

$$$$
>  <Compound>
CN[C@@H]1[C@H](O)[C@H](NC)[C@H]2O[C@]3(O)[C@H](O[C@@H]2[C@H]1O)O[C@H](C)C[C@@]3(O)CNCCc1ccc(OC(F)(F)F)cc1 [compound 57, Trihydrochloride]

>  <Units label>
µg/mL

>  <Reported measurement>
12.5

$$$$

Please indicate MIC recorded for CN[C@@H]1[C@H](O)[C@H](NC)[C@H]2O[C@]3(O)[C@H](O[C@@H]2[C@H]1O)O[C@H](C)C[C@@]3(O)CNCCc1cnccn1
3.1

Please indicate MIC recorded for CN[C@@H]1[C@H](O)[C@H](NC)[C@H]2O[C@]3(O)[C@H](O[C@@H]2[C@H]1O)O[C@H](C)C[C@@]3(O)CNCc1ccc(F)cc1 [compound 2, Trihydrochloride]
25

---

- System: Streptococcus pneumoniae clinical isolates representing several serotypes
- Test details: MIC determination, Streptococcus pneumoniae panel of clinical isolates (Table 7)
- Assay type: cell-based
- Condition description: Streptococcus pneumoniae; S. pneumoniae Daw8, PenG Resistant; read-out: MIC Daw8
Structures can show the parent of a compound that is named as a salt.
Measurement type: MIC (µg/mL)
Number in µg/mL, nothing else.

Record excerpt, results attached:
>  <Compound>
CN[C@@H]1[C@H](O)[C@H](NC)[C@H]2O[C@]3(O)[C@H](O[C@@H]2[C@H]1O)O[C@H](C)C[C@@]3(O)CNCc1ccc(OC(F)(F)F)cc1 [compound 11, Trihydrochloride]

>  <Measurement type>
MIC

>  <Units label>
µg/mL

>  <Reported measurement>
1.6

$$$$
>  <Compound>
CCc1ccc(CNC[C@]2(O)C[C@@H](C)O[C@H]3O[C@@H]4[C@@H](O)[C@H](NC)[C@H](O)[C@H](NC)[C@H]4O[C@]32O)cc1 [compound 3, Trihydrochloride]

>  <Measurement type>
MIC

>  <Units label>
µg/mL

>  <Reported measurement>
3.1

$$$$
>  <Compound>
CN[C@@H]1[C@H](O)[C@H](NC)[C@H]2O[C@]3(O)[C@H](O[C@@H]2[C@H]1O)O[C@H](C)C[C@@]3(O)CNCc1ccccc1 [compound 1, Trihydrochloride]

>  <Measurement type>
MIC

>  <Units label>
µg/mL

>  <Reported measurement>
6.3

$$$$
>  <Compound>
CN[C@@H]1[C@H](O)[C@H](NC)[C@H]2O[C@]3(O)[C@H](O[C@@H]2[C@H]1O)O[C@H](C)CC3(O)CN (stereo partly drawn) [mSPC, 3′-aminomethyl-3′-hydroxy spectinomycin, reference compound]

>  <Measurement type>
MIC

>  <Units label>
µg/mL

>  <Reported measurement>
100

$$$$
>  <Compound>
CCOc1ccc(CNC[C@]2(O)C[C@@H](C)O[C@H]3O[C@@H]4[C@@H](O)[C@H](NC)[C@H](O)[C@H](NC)[C@H]4O[C@]32O)cc1 [compound 4, Trihydrochloride]

>  <Measurement type>
MIC

>  <Units label>
µg/mL

>  <Reported measurement>
1.6

$$$$

Report MIC under test system Streptococcus pneumoniae clinical isolates representing several serotypes for CN[C@@H]1[C@H](O)[C@H](NC)[C@H]2O[C@]3(O)[C@H](O[C@@H]2[C@H]1O)O[C@H](C)C[C@@]3(O)CNCCc1ccccc1 [compound 6, Trihydrochloride] .
6.3

Report MIC under test system Streptococcus pneumoniae clinical isolates representing several serotypes for CN[C@@H]1[C@H](O)[C@H](NC)[C@H]2O[C@]3(O)[C@H](O[C@@H]2[C@H]1O)O[C@H](C)C[C@@]3(O)CNCc1ccc(F)cc1 [compound 2, Trihydrochloride] .
3.1

Report MIC under test system Streptococcus pneumoniae clinical isolates representing several serotypes for CN[C@@H]1[C@H](O)[C@H](NC)[C@H]2O[C@]3(O)[C@H](O[C@@H]2[C@H]1O)O[C@H](C)C[C@@]3(O)CNCc1ccccc1OC(F)(F)F [compound 10, Trihydrochloride] .
12.5

Report MIC under test system Streptococcus pneumoniae clinical isolates representing several serotypes for CN[C@@H]1[C@H](O)[C@H](NC)[C@H]2O[C@@]3(O)C(=O)C[C@@H](C)O[C@H]3O[C@@H]2[C@H]1O [SPC, reference compound] .
25
